Some binders, each annotated with its measured koff.
- study_system: SNV Gn^H, recombinant histidine-tagged N-terminal ectodomain region (head domain) of Sin Nombre viru (Sin Nombre virus, UniProt Q89905)
- protocol_notes: BLI
- measurement_setup: both partners purified
The response must be a number in s⁻¹ with no trailing unit.

[[record]]
binder = "SNV-42 Fab (Fab, V domains shown) VH: EVQLVESGGGLVQPGGSLRLSCAASGFTFSTYEMNWVRQAPGKGLEWVSYIRSSGSTVYYADSVKGRFTISRDNAKNLLYLQMNSLRAGDTAVYYCARIPGGYTGYFDYWGQGALVTVSS VL: QSVLTQPPSVSGAPGQRVTISCTGSSSNIGAGYYVHWYQQLPGTVPKLLIYGNNNRPSGVPDRFSGSKSGTSASLAITGLQTEDEADYYCQSYDSSLSGWVFGGGTKLTVL"
measurement_kind = "koff"
value_units = "s⁻¹"
value_observed = 0.00561


Asked: # input binder: SNV-42^GR, germline-revertant form of SNV-42 (IgG1) (antibody, V domains shown) VH: EVQLVESGGGLVQPGGSLRLSCAASGFTFSSYEMNWVRQAPGKGLEWVSYISSSGSTIYYADSVKGRFTISRDNAKNSLYLQMNSLRAEDTAVYYCARIPGGYSGYFDYWGQGTLVTVSS VL: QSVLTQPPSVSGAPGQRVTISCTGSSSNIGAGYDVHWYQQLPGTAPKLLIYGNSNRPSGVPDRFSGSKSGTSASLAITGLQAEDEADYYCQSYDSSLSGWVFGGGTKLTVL ; wanted: its koff
Given back: 0.000454

The reported numbers originate from paper PMC10322703.
